- Tested on: Fibroblast
- METHOD DESCRIPTION: Multiplex assay against human fibroblast
- Type: toxicity, cell-based
- STATED CONDITIONS: 12 h, 10 µM, compound concentration 10 uM, replicate 2
MEASURED ATTRIBUTE: Population Mitochondria Different-Phenotype (%)
Please give a number only; it is taken to be in %.

query: What does the data say about its Population Mitochondria Different-Phenotype (%)? Entry: O=C(NCC(=O)N1CC[C@H](N[C@H]2CC[C@@](O)(c3ccc(-c4ncccn4)cn3)CC2)C1)c1cccc(C(F)(F)F)c1 [PF-4136309]
result: 6

query: What does the data say about its Population Mitochondria Different-Phenotype (%)? Entry: CSCC[C@H](NC=O)C(=O)N[C@@H](CC(C)C)C(=O)N[C@@H](Cc1ccccc1)C(=O)O
result: 3

query: What does the data say about its Population Mitochondria Different-Phenotype (%)? Entry: Cc1ccc(F)cc1C(=O)Nc1ccc(C(=O)N2Cc3cccn3Cc3ccccc32)c(Cl)c1 [LIXIVAPTAN]
result: 10

Next:
query: What does the data say about its Population Mitochondria Different-Phenotype (%)? Entry: CN1CCN2c3ncccc3Cc3ccccc3C2C1 (stereo not given) [MIRTAZAPINE]
result: 7

query: What does the data say about its Population Mitochondria Different-Phenotype (%)? Entry: O=C(NCCO)c1cccc(-c2cc(Nc3ccc(OC(F)(F)F)cc3)ncn2)c1
result: 11

query: What does the data say about its Population Mitochondria Different-Phenotype (%)? Entry: CCOc1c2c(c(OCC)c3ncccc13)CN(c1ccc(CS(=O)(=O)NC(=O)Cc3ccccc3OC)cc1C)C2=O
result: 8

query: What does the data say about its Population Mitochondria Different-Phenotype (%)? Entry: CN(C)CCCc1cc(C(=O)Nc2ccc(-c3ccncc3)cc2)ccc1O.Cl.Cl
result: 6

query: What does the data say about its Population Mitochondria Different-Phenotype (%)? Entry: N[C@@]1(C(=O)O)CO[C@H]2[C@H](C(=O)O)[C@H]21 [LY-379268]
result: 1

query: What does the data say about its Population Mitochondria Different-Phenotype (%)? Entry: O=S(=O)(c1ccccc1)c1cnc2c(N3CCNCC3)cccc2c1 [INTEPIRDINE]
result: 13

query: What does the data say about its Population Mitochondria Different-Phenotype (%)? Entry: CCCC(CCC)C(=O)O [VALPROIC ACID]
result: 8

Recorded values, source ChEMBL document CHEMBL5058577.
